Tested on: Pyrenophora teres
Experiment: In vivo preventive test on Pyrenophora teres (barley)
Details: Table H2; 100 ppm, barley plants, preventive, grading 14 days after contamination
# Efficacy annotations
assay.metric: Efficacy (%)

Cn1nc(C(F)F)c(C(=O)N(Cc2cc(Cl)ccc2C2=CCCC2)C2CC2)c1F : 97
Cn1nc(C(F)F)c(C(=O)N(Cc2cc(C3=CCCC3)ccc2Cl)C2CC2)c1Cl : 71
Cn1cc(C(=O)N(Cc2cc(Cl)ccc2C2=CCCCCC2)C2CC2)c(C(F)F)n1 : 79
Cn1nc(C(F)F)c(C(=O)N(Cc2cc(C3=CCCCC3)ccc2Cl)C2CC2)c1Cl : 79
Cn1nc(C(F)F)c(C(=O)N(Cc2ccccc2C2=CCCC2)C2CC2)c1F : 86
Cn1nc(C(F)F)c(C(=O)N(Cc2cc(C3=CCCCC3)ccc2Cl)C2CC2)c1F : 86
Cn1nc(C(F)F)c(C(=O)N(Cc2cc(C3=CCCC3)ccc2Cl)C2CC2)c1F : 79
Cn1cc(C(=O)N(Cc2cc(Cl)ccc2C2=CCCC2)C2CC2)c(C(F)F)n1 : 71

====

# Efficacy annotations
Test system: Sphaerotheca fuliginea
Assay: In vivo preventive test on Sphaerotheca fuliginea (powdery mildew on cucurbits)
Conditions: 500 ppm, gherkin plants, grading 12 days after contamination
Description: The active ingredients tested are prepared by homogenization in a mixture of acetone/tween/DMSO and then diluted with water to obtain the desired active material concentration. Gherkin plants (“Vert petit de Paris” variety), sown in starter cups on a 50/50 peat soil-pozzolana substrate and grown at 24° C., are treated at the Z11 cotyledon stage by spraying with the active ingredient prepared as described above. […]
assay.metric: Efficacy

Cn1nc(C(F)F)c(C(=O)N(Cc2ccccc2C2=CCCCC2)C2CC2)c1F : 100%
CC1CC=C(c2ccc(Cl)cc2CN(C(=O)c2c(C(F)F)nn(C)c2F)C2CC2)CC1 (racemic) : 100%
Cn1cc(C(=O)N(Cc2ccccc2C2=CCCCC2)C2CC2)c(C(F)F)c1 : 83%
Cn1nc(C(F)F)c(C(=O)N(Cc2c(C3=CCCC3)ccc(F)c2F)C2CC2)c1F : 100%
Cn1nc(C(F)F)c(C(=S)N(Cc2cc(Cl)ccc2C2=CCCCC2)C2CC2)c1F : 80%

====

Tested on: Septoria tritici
Experiment: In vivo preventive test on Septoria tritici (wheat)
Conditions: 500 ppm of active ingredient; wheat plants, preventive spray; grading 24 days after contamination
# Efficacy annotations
assay.metric: Efficacy (%)

Cn1nc(C(F)F)c(C(=O)N(Cc2cc(F)ccc2C2=CCCCC2)C2CC2)c1Cl : 79
CC1CC=C(c2ccccc2C(C)N(C(=O)c2c(C(F)F)nn(C)c2F)C2CC2)CC1 (mixture of isomers) : 100
Cn1nc(C(F)F)c(C(=O)N(Cc2c(C3=CCCC3)ccc(F)c2F)C2CC2)c1F : 97
Cn1cc(C(=O)N(Cc2ccccc2C2=CCCC2)C2CC2)c(C(F)F)n1 : 88
Cc1nn(C)c(F)c1C(=O)N(C1CC1)C(C)c1ccccc1C1=CCCC1 (racemic) : 97
CC(c1ccccc1C1=CCCCC1)N(C(=O)c1c(C(F)F)nn(C)c1F)C1CC1 (racemic) : 100
Cn1nc(C(F)F)c(C(=O)N(Cc2ccccc2C2=CCCCC2)C2CC2)c1F : 94
CC1CC=C(c2ccc(Cl)cc2CN(C(=O)c2c(C(F)F)nn(C)c2F)C2CC2)CC1 (racemic) : 86
CC(c1cc(F)ccc1C1=CCCC1)N(C(=O)c1c(C(F)F)nn(C)c1F)C1CC1 (stereo not drawn) : 100
